These data points were gathered from PubChem BioAssay (NCI).

# Tested on: UACC-257 melanoma
# Test description: NCI-60 one-dose screen, 48 h
# Run conditions: 10 µM unless noted
# Protocol: Cells are grown in 96 well plates and exposed to the test compound for 48 hours. Compounds are tested at a single concentration, which is 10^-5 M for most compounds. The reported endpoint is percent growth (GI% or GIPRCNT), where numbers from 0 - 100% represent growth inhibition, and numbers from -100% - 0 represent cell death. For example, a value of 40 represents 60% growth inhibition. A value of 0 means no net growth occurred over the course of the experiment. […]
About 83,000 compounds went through this panel and 20% of them were active in at least one assay; those are over-represented in the sample as a whole. Active and inactive are the calls of the source. Rule for the calls: active = growth percent below 10; inactive = the rest.
Hello, when you answer, please use one of the following outcomes: active, inactive

Q: Fill in: this test's call for `FC(F)(F)c1cc2c(Cl)ncnc2n1CCN1CCCCC1` is ___
A: inactive

Q: Assay result, entry `S=C(Nc1ccccc1)Nc1ccc(OCc2nc3ccc(Cl)cc3[nH]2)cc1` — outcome?
A: inactive

Q: Lab log entry: Cc1cc(C(NC(=O)C2CC3(CC(Nc4cccc5c4C(=O)N(C4CCC(=O)NC4=O)C5=O)C3)C2)c2ccc3c(c2)OC(F)(F)O3)c(O)c2ncccc12 (stereo unspecified) — outcome as called in the assay?
A: active

Q: Record request — test call for `Nc1cc(-c2c[nH]c3ccc(F)cc23)nc2cc(-c3c[nH]c4ccccc34)nn12`
A: active

Q: # fetch the recorded call for `COc1ccc2c(c1)c(-c1cc(N)n3nc(-c4c[nH]c5ccccc45)cc3n1)cn2C` here
A: active

Q: Called result for `O=C(N/N=C/c1ccsc1)c1[nH]c2ccc(Br)cc2c1-c1ccccc1`
A: active

Q: Any idea what this test logged for `O=C(N/N=C/c1ccc(-c2cccc([N+](=O)[O-])c2)s1)c1[nH]c2ccc(Br)cc2c1-c1ccccc1` ?
A: inactive

Q: What outcome does the record of this test show for `S=C(Nc1ccc(OCc2nc3ccc(Cl)cc3[nH]2)cc1)NC1CCCCC1` ?
A: inactive

Q: # outcome recorded in this test, key = `CN(C)CCCc1ccc(Nc2cnn(C)c(=O)c2Cl)cc1`
A: inactive

Q: I would be grateful if you could indicate the recorded call for `O=C(N/N=C/c1c[nH]c2ccccc12)Nc1ccccc1Cl` .
A: inactive

Q: Called result for `O=C(CSc1nnc(-c2ccc(-c3nc4ccccc4[nH]3)cc2)o1)Nc1ccccc1`
A: inactive

Q: What call does the record list for CC1=C(C(=O)Nc2ccccc2)C(c2cccc(Cl)c2Cl)n2c(nc3ccccc32)N1 (stereo unspecified) ?
A: inactive

Q: Short answer needed: outcome of this test for `Fc1ccc(Nc2nnc(-c3c[nH]c4ccccc34)o2)cc1` ?
A: inactive

Q: Answer briefly: the call reported for CC1CCc2c(sc3nc(SCC(=O)c4cccc([N+](=O)[O-])c4)n(-c4ccccc4)c(=O)c23)C1 (stereo unspecified) in this assay.
A: inactive

Q: Tell me the recorded outcome of this test for `CCCN(CCC)S(=O)(=O)c1ccc(C(=O)O)cc1.CCCN(CCC)S(=O)(=O)c1ccc(C(=O)O)cc1.[Cl][Pt+2][Cl].[NH2-].[NH2-]` .
A: active

Q: Which outcome was entered for the compound O=C1CC(c2ccc(I)cc2)OC2C=Cc3ccccc3C12 (stereo unspecified) in this test?
A: inactive

Q: Identify the outcome logged in this assay for the compound shown: `COc1c(B(O)O)cc(F)cc1-c1nc2c(F)cc3[nH]ncc3c2c2c1CCCC2`
A: inactive

Q: Please let me know the test result on file for `COc1cc(NC(=O)CSc2nnc(-c3ccc(-c4nc5ccc(Cl)cc5[nH]4)cc3)o2)cc(OC)c1OC` .
A: inactive

Q: What outcome does the record of this test show for `CCCSc1nnc(-c2c(C)nc3sccn23)o1` ?
A: inactive

Q: Identify the outcome logged in this assay for the compound shown: CN(C)c1nc(NCCNS(=O)(=O)c2ccc(C3=Nc4c(N)nc(N)nc4NC(c4ccc(C(F)(F)F)cc4)C3)cc2)nc(N2CCOCC2)n1 (stereo unspecified)
A: inactive

Q: Would you mind telling me which call this test gave Cc1ccc(C2CC(c3ccc(NC(=S)Nc4ccccc4)cc3)=NN2c2ccc(S(N)(=O)=O)cc2)cc1 (stereo unspecified) ?
A: inactive

Q: Any idea what this test logged for `CC(C)(C)C(=O)c1c2c(c3ccc4c5ccccc5ccc4n13)C(=O)c1ccccc1C2=O` ?
A: inactive

Q: I would be grateful if you could indicate the recorded call for Cc1ccc(C(C(=O)NC2CCCCC2)N(Cc2ccccc2Cl)C(=O)c2ccc(CN3CCOCC3)o2)o1 (stereo unspecified) .
A: inactive

Q: Give the logged outcome of this assay for the following compound: `COc1ccc2[nH]c(=O)c(CSc3ccccc3Nc3nccc(-c4ccc(Cl)cc4)n3)cc2c1`
A: inactive

Q: Dear all, I need the recorded test outcome for Fc1ccc(F)c(CNc2nc(SCCN3CCOCC3)nc3c2cnn3CC(Cl)c2ccc(Br)cc2)c1 (stereo unspecified) , thank you.
A: active

Q: Entry `COc1ccc(-c2nc3ccc(-c4nnc(SCC(=O)Nc5ccc(/C(C)=N\O)cc5)o4)cc3[nH]2)cc1` : call = ?
A: inactive

Q: GET /call?item= `N#C/C(=C/c1ccc([N+](=O)[O-])cc1)c1nnc(NC(=O)c2ccc(-n3c(=O)[nH]c4ccccc4c3=O)cc2)s1` returns the recorded outcome of this test.
A: inactive

Q: Assay outcome for COc1cc(C2CC(c3ccc(S(=O)(=O)NCCNc4nc(N(C)C)nc(N5CCOCC5)n4)cc3)=Nc3c(N)nc(N)nc3N2)cc(OC)c1OC (stereo unspecified) : what was it?
A: inactive

Q: For `N#C/C(=C1/C(=O)Nc2ccccc21)c1nnc(NC(=O)c2ccc(-n3c(=O)[nH]c4ccccc4c3=O)cc2)s1` , which call appears in the assay record?
A: inactive

Q: Just curious, what result did COc1ccc(NC(=O)NN2C(=O)c3ccccc3N(C)C2c2ccc(OC)cc2)cc1 (stereo unspecified) get here?
A: inactive

Q: Which outcome was entered for the compound Cc1ccc(C2CC(c3ccc(NC(=O)Nc4ccccc4)cc3)=NN2c2ccc(S(N)(=O)=O)cc2)cc1 (stereo unspecified) in this test?
A: active

Q: Given `O=C(CSc1nnc(-c2ccc(-c3nc4ccccc4[nH]3)cc2)o1)Nc1ccc(Cl)cc1` , state the outcome it received in this test.
A: inactive

Q: For this compound, state the assay outcome: `COC(=O)c1cc(C(C)=O)n2c3ccccc3c3ccccc3c12`
A: inactive

Q: Test call, this compound: `O=C1Nc2cc(-c3ccc(NS(=O)(=O)c4ccc([N+](=O)[O-])cc4)cc3)ccc2/C1=C/c1ccc[nH]1`
A: active

Q: Hi, sorry to bother you, what did the test record for `COc1ccccc1Nc1nnc(-c2c[nH]c3ccccc23)o1` ?
A: inactive

Q: Could you check what this test reported for `CCCCCCCCc1cccc(CC(=O)Nc2ccc(C)cc2C(=O)O)c1` ?
A: inactive
